tested target: GST-tagged-Wee1 kinase (Homo sapiens, UniProt P30291)
Construct: purchased Carnabio 05-177
Sequence (P30291 whole entry): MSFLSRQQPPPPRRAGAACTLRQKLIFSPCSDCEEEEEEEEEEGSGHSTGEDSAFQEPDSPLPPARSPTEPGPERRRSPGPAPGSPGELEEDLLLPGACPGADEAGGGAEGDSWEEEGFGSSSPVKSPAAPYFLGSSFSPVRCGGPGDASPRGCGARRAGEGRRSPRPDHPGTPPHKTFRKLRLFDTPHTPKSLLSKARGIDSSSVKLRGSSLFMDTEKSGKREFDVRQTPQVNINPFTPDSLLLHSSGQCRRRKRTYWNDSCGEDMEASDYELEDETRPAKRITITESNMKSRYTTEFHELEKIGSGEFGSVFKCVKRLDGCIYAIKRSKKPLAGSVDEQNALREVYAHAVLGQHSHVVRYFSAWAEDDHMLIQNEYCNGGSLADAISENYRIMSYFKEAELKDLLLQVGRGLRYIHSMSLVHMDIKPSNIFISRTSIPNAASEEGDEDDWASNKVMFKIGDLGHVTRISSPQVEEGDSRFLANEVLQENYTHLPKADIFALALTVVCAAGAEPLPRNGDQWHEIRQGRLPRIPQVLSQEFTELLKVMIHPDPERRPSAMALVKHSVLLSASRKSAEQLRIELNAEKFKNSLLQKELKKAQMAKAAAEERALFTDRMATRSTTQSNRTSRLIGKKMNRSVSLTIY
protocol summary: Wee1 time-resolved fluorescence equilibrium binding assay (displacement of Oregon Green-labeled ATP-competitive probe)
applied conditions: TR-FRET probe displacement; 2 nM GST-Wee1, 300 nM probe, 1 hour incubation; read-out: Wee-1 binding (Ki nM)
property measured: Ki (nM)

CCCN1c2cc(-c3ccccc3)ccc2-c2nc(Nc3ccc(N4CCN(C)CC4)cc3)ncc2S1(=O)=O: 92
CCCN1c2cc(-c3c[nH]c4ncccc34)ccc2-c2nc(Nc3ccc(N4CCN(C)CC4)cc3)ncc2S1(=O)=O: 57
CN1CCN(c2ccc(Nc3ncc4c(n3)-c3ccccc3N(C)S4(=O)=O)cc2)CC1: 9
C=CCN1c2c(C(=O)OC)cccc2-c2nc(Nc3ccc(N4CCN(C)CC4)cc3)ncc2S1(=O)=O: 9
C=CCN1c2ncccc2-c2nc(Nc3ccc4c(c3)N(C)CCC4)ncc2S1(=O)=O: 45

[a] CCCN1c2cc(-n3cncn3)ccc2-c2nc(Nc3ccc(N4CCN(C)CC4)cc3)ncc2S1(=O)=O
[b] C=CCN1c2ncccc2-c2nc(Nc3ccc(N4CCN(C)CC4)cc3C)ncc2S1(=O)=O
# query: argmin of Ki over a and b Write the label of whichever entry you select.
a

[P] CCCN1c2cc(C(=O)NCc3cccnc3)ccc2-c2nc(Nc3ccc(N4CCN(C)CC4)cc3)ncc2S1(=O)=O
[Q] C=CCN1c2ccccc2-c2nc(N)ncc2S1(=O)=O
[R] C=CCN1c2ncccc2-c2nc(Nc3ccc(N4CCNCC4)c(C(F)(F)F)c3)ncc2S1(=O)=O
Arrange the 3 compounds by rising Ki, starting with the smallest. Show the ranking through the labels, in the order asked for.
P, R, Q

[a] CCCN1c2cc(-c3ccc(C(N)=O)cc3)ccc2-c2nc(Nc3ccc(N4CCN(C)CC4)cc3)ncc2S1(=O)=O
[b] CCCN1c2cc(C(=O)NCCO)ccc2-c2nc(Nc3ccc(N4CCN(C)CC4)cc3)ncc2S1(=O)=O
# query: argmin of Ki over a and b Write the label of whichever entry you select.
a
(a: 4 nM, b: 8 nM)

[I] CCCN1c2ccc(-c3cccc(C(=O)NC)c3)cc2-c2nc(Nc3ccc(N4CCN(C)CC4)cc3)ncc2S1(=O)=O
[II] CCCN1c2cc(C(=O)N(C)C)ccc2-c2nc(Nc3ccc(N4CCN(C)CC4)cc3)ncc2S1(=O)=O
Among I and II , which shows a numerically higher Ki result? Write the label of whichever entry you select.
II

[P] C=CCN1c2ncccc2-c2nc(Nc3ccc(N4CCN(C)CC4)cc3)ncc2S1(=O)=O
[Q] CCCN1c2ccc(-c3cccnc3)cc2-c2nc(Nc3ccc(N4CCN(C)CC4)cc3)ncc2S1(=O)=O
[R] C=CCN1c2ccccc2-c2nc(Nc3ccc4c(c3)NCCC4)ncc2S1(=O)=O
[S] C=CCN1c2ncccc2-c2nc(Nc3ccc(N4CCNCC4)c(F)c3)ncc2S1(=O)=O
Arrange the 4 compounds by rising Ki, starting with the smallest. Show the ranking through the labels, in the order asked for.
Q, P, S, R

[P] CCCN1c2cc(-c3cnc(N)nc3)ccc2-c2nc(Nc3ccc(N4CCN(C)CC4)cc3)ncc2S1(=O)=O
[Q] C=CCN1c2ncccc2-c2nc(Nc3ccc(OCCN(CC)CC)cc3)ncc2S1(=O)=O
[R] C=CCN1c2ncccc2-c2nc(Nc3ccc(N4CCNCC4)c(C)c3)ncc2S1(=O)=O
[S] C=CCN1c2ccccc2-c2nc(Nc3ccc4c(c3)CCCC4)ncc2S1(=O)=O
Rank order required: Ki, descending. Show the ranking through the labels, in the order asked for.
S, Q, P, R

[I] CCCN1c2cc(C(C)(C)O)ccc2-c2nc(Nc3ccc(N4CCN(C)CC4)cc3)ncc2S1(=O)=O
[II] C=CCN1c2ccccc2-c2nc(Nc3ccc4c(c3)CN(C)CC4(C)C)ncc2S1(=O)=O
[III] C=CCN1c2ncccc2-c2nc(Nc3ccc(C4CCNC4)cc3)ncc2S1(=O)=O (stereo not shown)
[IV] C=CCN1c2ncccc2-c2nc(Nc3ccc(C4CCNCC4)cc3)ncc2S1(=O)=O
[V] C=CCN1c2ncccc2-c2nc(Nc3ccc4c(c3)NCCC4)ncc2S1(=O)=O
Arrange the 5 compounds by rising Ki, starting with the smallest. Show the ranking through the labels, in the order asked for.
II, III, IV, I, V
(II: 1.7 nM, III: 3 nM, IV: 5 nM, I: 14 nM, V: 51 nM)

[A] CCCN1c2cc(-c3cn[nH]c3)ccc2-c2nc(Nc3ccc(N4CCN(C)CC4)cc3)ncc2S1(=O)=O
[B] C=CCN1c2ncccc2-c2nc(Nc3ccc4c(c3)CCNC4)ncc2S1(=O)=O
Among A and B , which shows a numerically higher Ki result? Write the label of whichever entry you select.
A

[a] C=CCN1c2ccccc2-c2nc(Nc3ccc(N4CCOCC4)cc3)ncc2S1(=O)=O
[b] CCCN1c2cc(-c3cccnc3)ccc2-c2nc(Nc3ccc(N4CCN(C)CC4)cc3)ncc2S1(=O)=O
# query: argmin of Ki over a and b Write the label of whichever entry you select.
b
